# Target Desc: Bcl-2 protein (Recombinant Human Bcl-2 Protein) (Homo sapiens)
# Construct: purchased Novus NBP2-34889
# Assay Name: Binding evaluation of mixture library compounds to Bcl-2 using AS-MS (affinity selection mass spectrometry)
# Condition Label: AS-MS, mixture library, Bcl-2; replicate n = 1; ASMS Ratio(%)=(A−C)/B×100
# Procedure: […] Then, analysis of the 1200 compounds was carried out for samples A, B, and C with TraceFinder 5.1 (Thermo Fisher Scientific) and CHANCE Software (in-house), and the ASMS Ratio (%) was calculated according to the following calculation formula. […]
Measured Property: ASMS ratio (%) n = 1
Answers are plain numbers, in %.

CCOc1cncc(-c2cc(OC)c(CN3CCN(c4ccc(C(=O)NS(=O)(=O)c5ccc(NCCSc6ccccc6)c([N+](=O)[O-])c5)cc4)CC3)c(OC)c2)c1 :: 0.0
CCOc1cncc(-c2ccc(CN3CCN(c4ccc(C(=O)NS(=O)(=O)CC56CC7CC(CC(C7)C5)C6)nn4)CC3)c(CC)c2)c1 :: 23.4
CCOc1cncc(-c2ccc(CN3CCN(c4ccc(C(=O)NS(=O)(=O)c5ccc(NCCSc6ccccc6)c([N+](=O)[O-])c5)nn4)CC3)c(CC)c2)c1 :: 0.0
CCOc1cccc(-c2ccc(CN3CCN(c4ccc(C(=O)NS(=O)(=O)c5ccc(NCCSc6ccccc6)c([N+](=O)[O-])c5)nn4)CC3)cc2C)c1 :: 0.0
CCOc1cccc(C#Cc2ccccc2CN2CCN(c3ccc(C(=O)N(CC)CC)cc3)CC2)c1 :: 1.8
CCOc1cccc(C#Cc2ccccc2CN2CCN(c3ccc(C(=O)NS(=O)(=O)CC45CC6CC(CC(C6)C4)C5)nn3)CC2)c1 :: 1.6
CCOc1cccc(-c2cc(OC)c(CN3CCN(c4ccc(C(=O)NS(=O)(=O)CC56CC7CC(CC(C7)C5)C6)nn4)CC3)c(OC)c2)c1 :: 0.0
CCOc1cccc(-c2cc(CN3CCN(c4ccc(C(=O)N(CC)CC)nn4)CC3)cc(C(F)(F)F)c2)c1 :: 0.9

List the reported ASMS ratio (%) n = 1 of each compound below.
1. CCOc1cncc(-c2ccccc2CCC(=O)N2CCN(c3ccc(C(=O)NS(C)(=O)=O)cc3)CC2)c1
2. CCOc1cccc(-c2ccc(C(C)N3CCN(c4ccc(C(=O)N(CC)CC)cc4)CC3)cc2)c1 (stereo not shown)
3. CCOc1cncc(-c2cc(C(=O)N3CCN(c4ccc(C(=O)NS(C)(=O)=O)nn4)CC3)cc(C(F)(F)F)c2)c1
4. CCOc1cncc(-c2ccc(CN3CCN(c4ccc(C(=O)NS(=O)(=O)CC56CC7CC(CC(C7)C5)C6)nn4)CC3)c(OC)c2)c1
5. CCOc1cncc(C#Cc2cncc(C(=O)N3CCN(c4ccc(C(=O)NS(=O)(=O)CC56CC7CC(CC(C7)C5)C6)nn4)CC3)c2)c1

**Result**
0.0
−0.9
0.0
0.0
0.0

====

Assignment: determine reported ASMS ratio (%) for the given compounds.
# Target Desc: Bcl-2 protein (Recombinant Human Bcl-2 Protein) (Homo sapiens)
# Construct: purchased Novus NBP2-34889
# Assay Name: Binding evaluation of mixture library compounds to Bcl-2 using AS-MS (affinity selection mass spectrometry)
# Condition Label: n = 2
Numbers only, in %.

A selection of reference data follows.
CCOc1cccc(-c2cc(OC)c(CN3CCN(c4ccc(C(=O)NS(=O)(=O)CCC(F)(F)F)nn4)CC3)c(OC)c2)c1 :: 0.0
CCOc1cccc(-c2ccc(C(C)N3CCN(c4ccc(C(=O)NS(C)(=O)=O)cc4)CC3)cc2)c1 (stereo not shown) :: 1.4

Look at each compound and report its ASMS ratio (%).
1. CCOc1cccc(-c2cc(CN3CCN(c4ccc(C(=O)NS(C)(=O)=O)cc4)CC3)cc(OC(F)(F)F)c2)c1
2. CCOc1cncc(-c2cc(C(=O)N3CCN(c4ccc(C(=O)NS(=O)(=O)CCC(F)(F)F)nn4)CC3)cc(C(C)(C)C)c2)c1
3. CCOc1cccc(-c2cc(C(=O)N3CCN(c4ccc(C(=O)NS(=O)(=O)c5ccc(NCCSc6ccccc6)c(C(F)(F)F)c5)nn4)CC3)cc(C(F)(F)F)c2)c1
4. CCOc1cccc(-c2ccc(C(=O)N3CCN(c4ccc(C(=O)NS(=O)(=O)C(C)(C)C)cc4)CC3)cc2C)c1
5. CCOc1cccc(-c2csc(C(=O)N3CCN(c4ccc(C(=O)NS(=O)(=O)C(C)(C)C)nn4)CC3)c2)c1
6. CCOc1cccc(-c2cc(OC)c(CN3CCN(c4ccc(C(=O)NS(=O)(=O)c5ccc(NCCSc6ccccc6)c(C(F)(F)F)c5)cc4)CC3)c(OC)c2)c1

**Result**
1: 0.0; 2: 0.0; 3: 27.2; 4: 0.0; 5: 0.0; 6: 0.0

====

Can you tell me ASMS ratio (%) n = 2 for the items I'm about to list?
# Target Desc: Bcl-2 protein (Recombinant Human Bcl-2 Protein) (Homo sapiens)
# Construct: purchased Novus NBP2-34889
# Assay Name: Binding evaluation of mixture library compounds to Bcl-2 using AS-MS (affinity selection mass spectrometry)
# Condition Label: AS-MS, mixture of 1200 compounds, Bcl-2; ASMS Ratio(%)=(A−C)/B×100; replicate n = 2

CCOc1cncc(-c2cc(CN3CCN(c4ccc(C(=O)NCC(F)(F)F)cc4)CC3)cc(C(F)(F)F)c2)c1 [B1K062-01] :: −0.3%

Parameter requested: ASMS ratio (%) n = 2. Apply to each item below.
1. CCOc1cccc(-c2cc(CN3CCN(c4ccc(C(=O)NCC56CC7CC(CC(C7)C5)C6)nn4)CC3)cc(OCC)c2)c1 [B1A081-01]
2. CCOc1cncc(-c2cc(CN3CCN(c4ccc(C(=O)NCC56CC7CC(CC(C7)C5)C6)cc4)CC3)cc(OC(C)C)c2)c1 [B1A058-01]
3. CCOc1cncc(-c2cc(CN3CCN(c4ccc(C(=O)NCC(F)(F)F)nn4)CC3)cc(OC(C)C)c2)c1 [B1K084-01]
4. CCOc1cncc(C#Cc2cc(C(=O)N3CCN(c4ccc(C(=O)NCC56CC7CC(CC(C7)C5)C6)cc4)CC3)cc(C(F)(F)F)c2)c1 [B1A042-01]
5. CCOc1cccc(-c2cc(C(=O)N3CCN(c4ccc(C(=O)NCC56CC7CC(CC(C7)C5)C6)nn4)CC3)cc(C(C)(C)C)c2)c1 [B1A015-01]
6. CCOc1cncc(-c2csc(CN3CCN(c4ccc(C(=O)NCC(F)(F)F)nn4)CC3)c2)c1 [B1K094-01]
7. CCOc1cccc(-c2ccccc2CN2CCN(c3ccc(C(=O)NCC(F)(F)F)nn3)CC2)c1 [B1K071-01]
8. CCOc1cccc(C#Cc2cc(C(=O)N3CCN(c4ccc(C(=O)NCC56CC7CC(CC(C7)C5)C6)nn4)CC3)cc(C(F)(F)F)c2)c1 [B1A019-01]

**Result**
["−5.5%", "0.0%", "0.0%", "−8.5%", "−20.6%", "−0.1%", "−0.9%", "−7.5%"]

====

# Target Desc: Bcl-2 protein (Recombinant Human Bcl-2 Protein) (Homo sapiens, UniProt P10415)
# Construct: purchased Novus NBP2-34889
# Sequence (P10415 whole entry): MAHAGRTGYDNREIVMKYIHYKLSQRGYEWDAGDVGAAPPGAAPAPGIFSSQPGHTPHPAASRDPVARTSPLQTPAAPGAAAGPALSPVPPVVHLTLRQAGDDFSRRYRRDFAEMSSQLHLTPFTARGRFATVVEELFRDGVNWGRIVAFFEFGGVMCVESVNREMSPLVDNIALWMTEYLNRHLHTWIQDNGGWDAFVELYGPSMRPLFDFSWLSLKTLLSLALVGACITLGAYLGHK
# Assay Name: Binding evaluation of mixture library compounds to Bcl-2 using AS-MS (affinity selection mass spectrometry)
# Condition Label: n = 2
Measured Property: ASMS ratio (%)
Answers are plain numbers, in %.

Below are worked cases with known answers.
CCOc1cccc(-c2cc(C(=O)N3CCN(c4ccc(C(=O)NS(=O)(=O)C(C)(C)C)nn4)CC3)cc(C(F)(F)F)c2)c1 [B2L017-01] :: 0.0
CCOc1cncc(-c2cc(C(=O)N3CCN(c4ccc(C(=O)NS(=O)(=O)C(C)(C)C)nn4)CC3)cc(C(F)(F)F)c2)c1 [B2L018-01] :: −2.5
CCOc1cccc(-c2cc(CN3CCN(c4ccc(C(=O)NS(=O)(=O)c5ccc(NCCSc6ccccc6)c(C(F)(F)F)c5)nn4)CC3)cc(OC(C)C)c2)c1 [B2R083-01] :: −11.1
CCOc1cncc(-c2cc(C(=O)N3CCN(c4ccc(C(=O)NS(=O)(=O)c5ccc(NCCSc6ccccc6)c(C(F)(F)F)c5)cc4)CC3)cc(C(F)(F)F)c2)c1 [B2R040-01] :: 0.2
CCOc1cccc(C#Cc2cncc(C(=O)N3CCN(c4ccc(C(=O)NS(=O)(=O)c5ccc(NCCSc6ccccc6)c(C(F)(F)F)c5)nn4)CC3)c2)c1 [B2R009-01] :: 19.5

The following compounds each have a reported value; give each one's ASMS ratio (%).
1. CCOc1cncc(-c2ccc(C(=O)N3CCN(c4ccc(C(=O)NS(=O)(=O)CCC(F)(F)F)cc4)CC3)c3ccccc23)c1 [B2N036-01]
2. CCOc1cncc(C#Cc2cc(C(=O)N3CCN(c4ccc(C(=O)NS(C)(=O)=O)cc4)CC3)cc(C(F)(F)F)c2)c1 [B2I042-01]
3. CCOc1cncc(-c2ccccc2CN2CCN(c3ccc(C(=O)NS(C)(=O)=O)nn3)CC2)c1 [B2I072-01]
4. CCOc1cncc(-c2ccc(CN3CCN(c4ccc(C(=O)NS(=O)(=O)c5ccc(NCCSc6ccccc6)c(C(F)(F)F)c5)cc4)CC3)cc2C)c1 [B2R048-01]
5. CCOc1cccc(-c2ccc(C(=O)N3CCN(c4ccc(C(=O)NS(=O)(=O)C(C)(C)C)cc4)CC3)cc2F)c1 [B2L027-01]
6. CCOc1cncc(-c2cc(CN3CCN(c4ccc(C(=O)NS(C)(=O)=O)nn4)CC3)cc(OC(F)(F)F)c2)c1 [B2I090-01]

**Result**
0.4
0.0
1.3
7.5
0.0
0.0

I need ASMS ratio (%) for every entry listed below, if you could help.
1. CCOc1cccc(-c2ccccc2CCC(=O)N2CCN(c3ccc(C(=O)NS(=O)(=O)c4ccc(NCCSc5ccccc5)c(C(F)(F)F)c4)cc3)CC2)c1 [B2R033-01]
2. CCOc1cccc(-c2ccc(C(C)N3CCN(c4ccc(C(=O)NS(=O)(=O)c5ccc(NCCSc6ccccc6)c(C(F)(F)F)c5)cc4)CC3)cc2)c1 (stereo not shown) [B2R097-01]

**Result**
−6.6
−7.8
